- assay-method-text: cytotoxic assay, nuclei count (Hoechst, HCS)
- Format: cell-based, human
- measurement-parameters: human, human skin fibroblasts (non-cancerous reference cells); 48 h treatment; some cells add low/moderate/high amplitude; read-out: Cytotoxic studies IC50 Fibroblasts
The label is Yes for IC50 at 48 h below 6 µM and No for IC50 at 48 h equal to or exceeding 6 µM.

Before answering, review these 4 worked examples.
compound="CC(C)(C)OC(=O)N[C@H]1CC[C@@H](n2cc(COc3cccc4cnc(Nc5cc(Cl)cc(Cl)c5)nc34)nn2)CC1 [15b]" class=No
compound="COC(=O)c1ccc(-n2cc(COc3cccc4cnc(Nc5cccc(Cl)c5)nc34)nn2)c([N+](=O)[O-])c1 [12f]" class=No
compound="N[C@H]1CC[C@H](n2cc(COc3cccc4cnc(Nc5cc(Cl)cc(Cl)c5)nc34)nn2)CC1 [19b]" class=Yes
compound="O=[N+]([O-])c1cc(Br)ccc1-n1cc(COc2cccc3cnc(Nc4cccc(Cl)c4)nc23)nn1 [12d]" class=No

QUERY: hey, is IC50 at 48 h for O=C(O)c1ccc(-n2cc(COc3cccc4cnc(Nc5cccc(Cl)c5)nc34)nn2)c([N+](=O)[O-])c1 [12g] lower than 6 µM or not?
RESULT: No

QUERY: hey, is IC50 at 48 h for N[C@H]1CC[C@@H](n2cc(COc3cccc4cnc(Nc5cc(Cl)cc(Cl)c5)nc34)nn2)CC1 [16b] lower than 6 µM or not?
RESULT: Yes

QUERY: hey, is IC50 at 48 h for `Cc1ccc(-n2cc(COc3cccc4cnc(Nc5cc(Cl)cc(Cl)c5)nc34)nn2)c([N+](=O)[O-])c1` lower than 6 µM or not?
RESULT: No

QUERY: hey, is IC50 at 48 h for N[C@H]1CC[C@@H](n2cc(COc3cccc4cnc(Nc5cccc(Cl)c5)nc34)nn2)CC1 [16a] lower than 6 µM or not?
RESULT: No

QUERY: hey, is IC50 at 48 h for CC(C)(C)OC(=O)N[C@H]1CC[C@H](n2cc(COc3cccc4cnc(Nc5cc(Cl)cc(Cl)c5)nc34)nn2)CC1 [18b] lower than 6 µM or not?
RESULT: No

QUERY: hey, is IC50 at 48 h for N[C@H]1CC[C@H](n2cc(COc3cccc4cnc(Nc5cccc(Cl)c5)nc34)nn2)CC1 [19a] lower than 6 µM or not?
RESULT: Yes

* * *

- study-target: Hs_CDK9/CyclinT (Homo sapiens, UniProt P50750)
- Construct: host or cells: Sf9 insect cells (baculovirus)
- Sequence (P50750 whole entry): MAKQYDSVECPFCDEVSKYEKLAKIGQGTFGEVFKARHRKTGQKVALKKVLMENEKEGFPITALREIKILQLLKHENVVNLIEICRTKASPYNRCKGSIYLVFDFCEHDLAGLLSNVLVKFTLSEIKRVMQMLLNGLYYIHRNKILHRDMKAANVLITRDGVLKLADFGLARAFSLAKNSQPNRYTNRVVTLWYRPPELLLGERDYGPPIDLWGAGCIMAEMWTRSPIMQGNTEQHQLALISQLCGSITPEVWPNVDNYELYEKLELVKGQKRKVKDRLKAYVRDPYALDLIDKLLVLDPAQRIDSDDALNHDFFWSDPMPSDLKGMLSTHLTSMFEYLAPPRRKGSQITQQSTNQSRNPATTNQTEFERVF
- Sequence (O60563 whole entry partner): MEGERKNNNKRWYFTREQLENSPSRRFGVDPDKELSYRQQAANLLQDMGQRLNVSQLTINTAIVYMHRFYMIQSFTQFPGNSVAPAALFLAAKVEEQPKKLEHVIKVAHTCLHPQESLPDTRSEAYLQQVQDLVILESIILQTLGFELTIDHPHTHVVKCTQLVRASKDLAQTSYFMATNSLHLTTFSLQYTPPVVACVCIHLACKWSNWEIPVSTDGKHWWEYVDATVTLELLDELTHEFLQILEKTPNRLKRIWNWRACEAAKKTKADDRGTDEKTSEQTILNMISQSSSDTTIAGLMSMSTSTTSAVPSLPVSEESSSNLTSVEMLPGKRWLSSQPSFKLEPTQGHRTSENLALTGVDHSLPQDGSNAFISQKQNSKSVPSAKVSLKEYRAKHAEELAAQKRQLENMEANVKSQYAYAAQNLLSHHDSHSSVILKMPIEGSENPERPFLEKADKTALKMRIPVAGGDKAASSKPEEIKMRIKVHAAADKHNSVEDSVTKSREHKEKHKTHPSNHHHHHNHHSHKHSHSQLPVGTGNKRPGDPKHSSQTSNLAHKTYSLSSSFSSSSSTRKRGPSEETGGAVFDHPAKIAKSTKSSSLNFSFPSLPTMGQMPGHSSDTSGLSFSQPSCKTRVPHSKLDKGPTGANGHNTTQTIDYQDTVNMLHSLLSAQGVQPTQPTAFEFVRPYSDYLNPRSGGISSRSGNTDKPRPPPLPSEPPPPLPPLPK
- assay-method-text: ADP-Glo kinase assay, primary screen
- Format: biochemical
- measurement-parameters: 1 µM, n=2; read-out: % of residual activity Hs_CDK9/CyclinT
The label is Condition met for remaining activity at 1 µM below 70% and Condition not met for remaining activity at 1 µM equal to or exceeding 70%.

Before answering, review these 5 worked examples.
compound="CC(C)(C)OC(=O)N[C@H]1CC[C@H](n2cc(COc3cccc4cnc(Nc5cccc(Cl)c5)nc34)nn2)CC1 [18a]" study_target="Hs_CDK9/CyclinT (Homo sapiens, UniProt P50750)" class="Condition not met"
compound="N[C@H]1CC[C@H](n2cc(COc3cccc4cnc(Nc5cc(Cl)cc(Cl)c5)nc34)nn2)CC1 [19b]" study_target="Hs_CDK9/CyclinT (Homo sapiens, UniProt P50750)" class="Condition not met"
compound="COC(=O)c1ccc(-n2cc(COc3cccc4cnc(Nc5cccc(Cl)c5)nc34)nn2)c([N+](=O)[O-])c1 [12f]" study_target="Hs_CDK9/CyclinT (Homo sapiens, UniProt P50750)" class="Condition not met"
compound="CC(C)(C)OC(=O)N[C@H]1CC[C@@H](n2cc(COc3cccc4cnc(Nc5cccc(Cl)c5)nc34)nn2)CC1 [15a]" study_target="Hs_CDK9/CyclinT (Homo sapiens, UniProt P50750)" class="Condition met"
compound="CC(C)(C)OC(=O)N[C@H]1CC[C@H](n2cc(COc3cccc4cnc(Nc5cc(Cl)cc(Cl)c5)nc34)nn2)CC1 [18b]" study_target="Hs_CDK9/CyclinT (Homo sapiens, UniProt P50750)" class="Condition not met"

QUERY: hey, is remaining activity at 1 µM for O=[N+]([O-])c1cc(O)ccc1-n1cc(COc2cccc3cnc(Nc4cccc(Cl)c4)nc23)nn1 [12c] lower than 70% or not?
RESULT: Condition met

QUERY: hey, is remaining activity at 1 µM for O=[N+]([O-])c1cc(Br)ccc1-n1cc(COc2cccc3cnc(Nc4cccc(Cl)c4)nc23)nn1 [12d] lower than 70% or not?
RESULT: Condition not met
